# test name: method code SF-RC, from DOI: 10.1016/s0969-8051(99)00046-3, PMID: 10628564
# condition set: pH 7.4
measure name: logD
// no unit, no text: just the number

# input Reported logD for CN1CCN(C(=O)OC2c3nccnc3C(=O)N2c2ccc(I)cn2)CC1 (stereo unspecified) : what is it?
# output 1.6

====

measure name: logP
No unit in the answer, only the number.

>>> numeric_result("Clc1ccc(-c2ccc(Cl)cc2Cl)cc1")
5.62

Attention now turns to another entry.
# input Which logP value belongs to Clc1ccccc1-c1ccccc1Cl ?
# output 4.8

====

The following compounds are shown together with reported logP values.
# test name: from Rich, R. (1990). Partition coefficients of quinones and their relation to biochemical reactivity. In Lenaz, G. (Ed.), Highlights in Ubiquinone Research: Proceedings of the International Symposium, …
Respond numerically, and do not add a unit to the figure.

>>> numeric_result("CC1=C(C)C(=O)C=CC1=O")
1.23

With those in mind, consider the next compound.
# input Suppose we examine the compound COc1c(O)ccc(O)c1OC ; what logP value has been reported?
# output 0.61
